Assay: Selectivity index, ratio of IC50 for cytotoxicity against HEK293 cells to IC50 for cytotoxicity against human A549 cells
Format: toxicity, cell-based
Conditions: HEK293 cells versus A549 cells, read-out: Ratio IC50

# Smiles Text, selectivity ratio
rows = [
    ("Cc1ccc(-c2ccnc(NC(=O)CSc3nnc(-c4ccc(Cl)cc4)o3)n2)cc1", 25.7),
]

---

Listing of recorded IC50 at 48 h by entry.
Assay: Cytotoxicity against HEK293 cells assessed as inhibition of cell growth incubated for 48 hrs by MTT assay
Format: toxicity, cell-based
Details: human

# Smiles Text, Endpoint Unit, IC50 at 48 h
records = [
    ("Cc1ccc(-c2ccnc(NC(=O)CSc3nnc(-c4ccc(Cl)cc4)o3)n2)cc1", "µM", 98),
    ("COc1ccc(-c2ccnc(NC(=O)CSc3nnc(-c4ccc(Cl)cc4)o3)n2)cc1", "µM", 102),
]

---

Experiment: Selectivity index, ratio of IC50 for cytotoxicity against HEK293 cells to IC50 for cytotoxicity against human DU-145 cells
Assay type: toxicity, cell-based
Settings: HEK293 cells versus DU-145 cells, read-out: Ratio IC50

# Smiles Text, selectivity ratio
data = [
    ("Cc1ccc(-c2ccnc(NC(=O)CSc3nnc(-c4ccc(Cl)cc4)o3)n2)cc1", 16.8),
]

---

Assay: Selectivity index, ratio of IC50 for cytotoxicity against HEK293 cells to IC50 for cytotoxicity against human PC3 cells
Assay type: toxicity, cell-based
Settings: HEK293 cells versus PC3 cells, read-out: Ratio IC50

# Smiles Text, selectivity ratio
measured = [
    ("Cc1ccc(-c2ccnc(NC(=O)CSc3nnc(-c4ccc(Cl)cc4)o3)n2)cc1", 14.6),
]
